target.or.test.system: MASP-2 CCP2-SP (Homo sapiens (Human), UniProt O00187)
Sequence (O00187 445-686): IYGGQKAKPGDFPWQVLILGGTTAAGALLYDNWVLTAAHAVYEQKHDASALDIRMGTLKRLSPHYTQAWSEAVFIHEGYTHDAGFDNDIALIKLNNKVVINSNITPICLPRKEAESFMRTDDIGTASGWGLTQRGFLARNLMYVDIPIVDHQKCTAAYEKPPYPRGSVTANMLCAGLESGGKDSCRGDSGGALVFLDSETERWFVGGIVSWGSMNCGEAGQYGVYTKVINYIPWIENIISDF
Sequence (O00187 364-432 partner): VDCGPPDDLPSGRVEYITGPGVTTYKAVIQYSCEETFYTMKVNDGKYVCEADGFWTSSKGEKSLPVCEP
assay.text: MASP-2 co-crystallization, X-ray crystallography and structure analysis (H-bonds, van der Waals contacts)
measurement.setup: Table A8-6; nearest protein atom in cell to the left
Source text: This example illustrates the preparation of recombinant MASP-2 protein, based on UniProt O00187, human mannan-binding lectin serine protease 2. Expression constructs for human MASP-2 CCP2-SP and CCP2-SP-6HIS were generated for recombinant expression in E. coli cells. […]
Known Pharmacophore protein distance to PHE_529 of a selection of compounds
measured.endpoint: Pharmacophore protein distance to PHE_529

> print(dat)
                                   compound  data.value
1  C[C@H](NC(=O)[C@H](N)C1Cc2ccccc2C1)C(=O)NCc1ccc2c(N)nccc2c1.Cl.Cl [1088_B]        2.75
2  C[C@H](NC(=O)[C@@H](CCc1ccccc1)NCc1ccc(N2CCOCC2)cc1)C(=O)NCc1ccc(C(=N)N)cc1        2.93
3  C[C@H](NC(=O)[C@H]1C[C@@H](c2ccccc2)CN1)C(=O)NCc1ccc2c(N)nccc2c1.Cl.Cl [1089_A]        2.81
4  C[C@H](NC(=O)[C@H](N)CCc1ccccc1)C(=O)NCc1ccc(C(=N)N)cc1        3.20
